# Max delta APD95 per entry
# Species on record: Canis familiaris
# assay: Maximum observed change in ADP95 from control value was determined in isolated canine cardiac uM
# Type: functional, Canis lupus familiaris
Reply numerically in %, unit not repeated.

Input line: Tell us which Max delta APD95 value is on record for "C[n+]1ccn(CC(=O)c2ccc(NS(C)(=O)=O)cc2)c1.[Cl-]"
Output line: 38

---
Input line: Tell us which Max delta APD95 value is on record for "CCS(=O)(=O)Nc1ccc(C(=O)Cn2cc[n+](C)c2)cc1.[Cl-]"
Output line: 33

Input line: Tell us which Max delta APD95 value is on record for CC(C)NCC(O)c1ccc(NS(C)(=O)=O)cc1.Cl (stereo not given) [SOTALOL HYDROCHLORIDE]
Output line: 48

Input line: Tell us which Max delta APD95 value is on record for C[n+]1ccn(CC(O)c2ccc(NS(C)(=O)=O)cc2)c1 (stereo not given)
Output line: 55

Input line: Tell us which Max delta APD95 value is on record for "CC[n+]1ccn(CC(=O)c2ccc(NS(C)(=O)=O)cc2)c1.[Cl-]"
Output line: 26

Input line: Tell us which Max delta APD95 value is on record for CCS(=O)(=O)Nc1ccc(C(O)Cn2cc[n+](C)c2)cc1.[Cl-] (stereo not given)
Output line: 27

Input line: Tell us which Max delta APD95 value is on record for Cc1c(C)[n+](C)c(C)n1CC(O)c1ccc(NS(C)(=O)=O)cc1.[Cl-] (stereo not given)
Output line: 13

* * *

# log10 Activity per entry
# Organism: Canis familiaris
# assay: Concentration that causes 20% increase in ADP95 (action potential duration at 95% repolarization) was determined on isolated canine cardiac Purkinje fibers
# Format: functional, Canis lupus familiaris, Purkinje fiber
Units before log transform: µM; reported quantity: Activity; transform: log10.

Input line: Tell us which log10 Activity value is on record for "C[n+]1ccn(CCCc2ccc(NS(C)(=O)=O)cc2)c1.O=P([O-])(O)O"
Output line: 0.86

* * *

# System: Canis familiaris
# assay: In vivo intraduodenal activity in mongrel dogs was assessed by % change in heart rate (10 mg/kg administered intradermally)
# Type: functional, Canis lupus familiaris
# recorded_conditions: in the assay text read “intraduodenally” for “intradermally”
For each record, check the reported Heart rate: if it is below -10% write 1, else write 0.

Input line: # check: Heart rate < -10% for Cc1c(C)[n+](C)c(C)n1CC(O)c1ccc(NS(C)(=O)=O)cc1.[Cl-] (stereo unspecified)
Output line: 1

---
Input line: # check: Heart rate < -10% for "C[n+]1ccn(CCC(=O)c2ccc(NS(C)(=O)=O)cc2)c1.[Cl-]"
Output line: 0

Input line: # check: Heart rate < -10% for Cc1n(CC(O)c2ccc(NS(C)(=O)=O)cc2)cc[n+]1C.[Cl-] (stereo unspecified)
Output line: 1

Input line: # check: Heart rate < -10% for CCCCCCC[N+](CC)(CC)CCCCc1ccc(Cl)cc1.O=P([O-])(O)O [CLOFILIUM PHOSPHATE]
Output line: 1

* * *

# Species on record: Canis familiaris
# assay: Concentration that causes 20% increase in ADP95 (action potential duration at 95% repolarization) was determined on isolated canine cardiac Purkinje fibers
# Format: functional, Canis lupus familiaris, Purkinje fiber
observation_type: Activity (µM)
Reply numerically in µM, unit not repeated.

Input line: Tell us which Activity value is on record for CC[n+]1ccn(CC(O)c2ccc(NS(C)(=O)=O)cc2)c1.[Cl-] (stereo not given)
Output line: 6.2

Input line: Tell us which Activity value is on record for "Cc1n(CC(=O)c2ccc(NS(C)(=O)=O)cc2)cc[n+]1C.[Cl-]"
Output line: 24.8

Input line: Tell us which Activity value is on record for "C[n+]1ccn(C[C@H](O)c2ccc(NS(C)(=O)=O)cc2)c1.[Cl-]"
Output line: 0.3

Input line: Tell us which Activity value is on record for "C[n+]1ccn(C[C@@H](O)c2ccc(NS(C)(=O)=O)cc2)c1.[Cl-]"
Output line: 0.7

Input line: Tell us which Activity value is on record for "C[n+]1ccn(CCC(=O)c2ccc(NS(C)(=O)=O)cc2)c1.[Cl-]"
Output line: 38.3

---
Input line: Tell us which Activity value is on record for C[n+]1ccn(CC(O)c2ccc(NS(C)(=O)=O)cc2)c1 (stereo not given)
Output line: 0.6

Input line: Tell us which Activity value is on record for CCCCCCC[n+]1ccn(CC(O)c2ccc(NS(C)(=O)=O)cc2)c1.O=P([O-])(O)O (stereo not given)
Output line: 2.8

Input line: Tell us which Activity value is on record for "C[n+]1ccn(CCc2ccc(NS(C)(=O)=O)cc2)c1.[I-]"
Output line: 2.6

Input line: Tell us which Activity value is on record for CCS(=O)(=O)Nc1ccc(C(O)Cn2cc[n+](C)c2)cc1.[Cl-] (stereo not given)
Output line: 30

Input line: Tell us which Activity value is on record for "CCS(=O)(=O)Nc1ccc(C(=O)Cn2cc[n+](C)c2)cc1.[Cl-]"
Output line: 29
